Biological target: T1, KIR3DL2 recombinant protein (R&D Systems) (human, UniProt P43630 28-340)
T1 construct: Bought protein; also called rec KIR3DL2; recombinant KIR3DL2-Fc fusion protein; not shown: Fc part of the bought fusion protein; not described
T1 sequence (P43630 28-340 A108T): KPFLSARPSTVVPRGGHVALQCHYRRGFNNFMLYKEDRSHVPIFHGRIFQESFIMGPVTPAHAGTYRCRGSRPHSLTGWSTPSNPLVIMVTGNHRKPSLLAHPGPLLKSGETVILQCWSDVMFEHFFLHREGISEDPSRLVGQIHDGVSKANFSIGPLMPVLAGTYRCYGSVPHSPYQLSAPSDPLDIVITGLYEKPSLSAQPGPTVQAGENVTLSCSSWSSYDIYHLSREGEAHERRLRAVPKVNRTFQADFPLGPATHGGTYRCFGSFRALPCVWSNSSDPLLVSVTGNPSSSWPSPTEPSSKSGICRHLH
Experiment: SCK kinetic method
Entries and their koff
Numbers only here, please. The scale is s⁻¹.

binder="Hum32-K32-15C11 (antibody, V domains shown, also called H3/L2) VH: EVQLVESGGGLVQPGGSLRLSCAASGFTFSDAWMDWVRQAPGKGLEWVAEIRSKANNHATYYAASVKGRFTISRDDSKNSVYLQMNSLKTEDTAVYYCTGGYYPVYWGQGTLVTVSS VL: DIQMTQSPSSLSASVGDRVTITCKASQDINKNIAWYQHKPGKAPKLLIHYTSTLQPGVPSRFSGSGSGTDFTFTISSLQPEDIATYYCLQYDNLLTFGGGTKVEIK" quantity_measured=koff reading=0.000104
binder="Hum13-K32-15C11 (antibody, V domains shown, also called H1/L3) VH: EVQLVESGGGLVQPGGSLRLSCAASGFTFSDAWMDWVRQAPGKGLEWVGRIRSKANNHATAYAASVKGRFTISRDDSKNSLYLQMNSLKTEDTAVYYCTGGYYPVYWGQGTLVTVSS VL: DIQMTQSPSSLSASVGDRVTITCKASQDINKNIAWYQHKPGKAPKLLIHYTSTLQPGVPSRFSGSGSGRDYTFTISSLQPEDIATYYCLQYDNLLTFGGGTKVEIK" quantity_measured=koff reading=0.000286
binder="Hum22-K32-15C11 (antibody, V domains shown, also called H2/L2) VH: EVQLVESGGGLVQPGGSLRLSCAASGFTFSDAWMDWVRQAPGKGLEWVGEIRSKANNHATYYAASVKGRFTISRDDSKNSLYLQMNSLKTEDTAVYYCTGGYYPVYWGQGTLVTVSS VL: DIQMTQSPSSLSASVGDRVTITCKASQDINKNIAWYQHKPGKAPKLLIHYTSTLQPGVPSRFSGSGSGTDFTFTISSLQPEDIATYYCLQYDNLLTFGGGTKVEIK" quantity_measured=koff reading=0.000156
binder="antibody 15C11 (antibody, mouse IgG2a, V domains shown, also called M-K32-15C11; 15C11-PE (PE-labelled form)) VH: EVKLEESGGGLVQPGGSMKLSCAASGFTFSDAWMDWVRQSPEKGLEWVAEIRSKANNHATYYAESVKGRFTISRDDSKSSVYLRMNSLRAEDTGIYYCTGGYYPVYWGQGTLVTVSA VL: DIQMTQSPSSLSASLGGKVTITCKASQDINKNIAWYQHKPGKGPRLLIHYTSTLQPGFPSRFSGSGSGRDYSFSISNLEPEDLATYYCLQYDNLLTFGGGTKLEIK" quantity_measured=koff reading=0.00011

Value of koff reported for the binder Hum12-K32-15C11 (antibody, V domains shown, also called H1/L2; H1-L2) VH: EVQLVESGGGLVQPGGSLRLSCAASGFTFSDAWMDWVRQAPGKGLEWVGRIRSKANNHATAYAASVKGRFTISRDDSKNSLYLQMNSLKTEDTAVYYCTGGYYPVYWGQGTLVTVSS VL: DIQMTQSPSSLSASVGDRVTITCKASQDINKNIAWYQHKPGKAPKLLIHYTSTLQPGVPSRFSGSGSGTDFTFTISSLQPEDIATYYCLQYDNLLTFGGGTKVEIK is 0.000109

Value of koff reported for the binder chimeric 15C11 of human IgG1 Fc isotype (antibody, V domains shown, Human-mouse chimeric antibody with the variable regions of murine 15C11; also called chim15C11; Chim15C11) VH: EVKLEESGGGLVQPGGSMKLSCAASGFTFSDAWMDWVRQSPEKGLEWVAEIRSKANNHATYYAESVKGRFTISRDDSKSSVYLRMNSLRAEDTGIYYCTGGYYPVYWGQGTLVTVSA VL: DIQMTQSPSSLSASLGGKVTITCKASQDINKNIAWYQHKPGKGPRLLIHYTSTLQPGFPSRFSGSGSGRDYSFSISNLEPEDLATYYCLQYDNLLTFGGGTKLEIK is 0.000108

src = patent US20150291692A1
